Hey, just so you know, these numbers are from patent US12139487B2.

Here's a batch of compounds along with measured pIC50 for BRG-1 (Homo sapiens, UniProt P51532).
pIC50: −log10 of the molar value.
recorded endpoint: pIC50

O=C(NCc1cc2nc(N3CCOc4cc(C5CC5)cnc43)ccc2cn1)c1cc(Cl)c2c(c1)S(=O)(=O)[C@@H](F)COC2 = 7.31

[A] O=C(NCc1cc2nc(N3CCOc4cc(C5CC5)cnc43)ccc2cn1)c1cc(F)c2c(c1)S(=O)(=O)[C@@H](F)CCO2
[B] [2H]C1([2H])Oc2c(F)cc(C(=O)NCc3cc4nc(-c5ccc(OC(F)F)c(C6CC6)n5)ccc4cn3)cc2S(=O)(=O)[C@@]([2H])(F)C1([2H])[2H]
Incoming: Which has the smaller recorded pIC50, A or B ? Identify your selection by its label.
Outgoing: B
(B: 6.99, A: 7.41)

###

# target system: BRG-1 (Homo sapiens, UniProt P51532)
# Sequence (P51532 whole entry): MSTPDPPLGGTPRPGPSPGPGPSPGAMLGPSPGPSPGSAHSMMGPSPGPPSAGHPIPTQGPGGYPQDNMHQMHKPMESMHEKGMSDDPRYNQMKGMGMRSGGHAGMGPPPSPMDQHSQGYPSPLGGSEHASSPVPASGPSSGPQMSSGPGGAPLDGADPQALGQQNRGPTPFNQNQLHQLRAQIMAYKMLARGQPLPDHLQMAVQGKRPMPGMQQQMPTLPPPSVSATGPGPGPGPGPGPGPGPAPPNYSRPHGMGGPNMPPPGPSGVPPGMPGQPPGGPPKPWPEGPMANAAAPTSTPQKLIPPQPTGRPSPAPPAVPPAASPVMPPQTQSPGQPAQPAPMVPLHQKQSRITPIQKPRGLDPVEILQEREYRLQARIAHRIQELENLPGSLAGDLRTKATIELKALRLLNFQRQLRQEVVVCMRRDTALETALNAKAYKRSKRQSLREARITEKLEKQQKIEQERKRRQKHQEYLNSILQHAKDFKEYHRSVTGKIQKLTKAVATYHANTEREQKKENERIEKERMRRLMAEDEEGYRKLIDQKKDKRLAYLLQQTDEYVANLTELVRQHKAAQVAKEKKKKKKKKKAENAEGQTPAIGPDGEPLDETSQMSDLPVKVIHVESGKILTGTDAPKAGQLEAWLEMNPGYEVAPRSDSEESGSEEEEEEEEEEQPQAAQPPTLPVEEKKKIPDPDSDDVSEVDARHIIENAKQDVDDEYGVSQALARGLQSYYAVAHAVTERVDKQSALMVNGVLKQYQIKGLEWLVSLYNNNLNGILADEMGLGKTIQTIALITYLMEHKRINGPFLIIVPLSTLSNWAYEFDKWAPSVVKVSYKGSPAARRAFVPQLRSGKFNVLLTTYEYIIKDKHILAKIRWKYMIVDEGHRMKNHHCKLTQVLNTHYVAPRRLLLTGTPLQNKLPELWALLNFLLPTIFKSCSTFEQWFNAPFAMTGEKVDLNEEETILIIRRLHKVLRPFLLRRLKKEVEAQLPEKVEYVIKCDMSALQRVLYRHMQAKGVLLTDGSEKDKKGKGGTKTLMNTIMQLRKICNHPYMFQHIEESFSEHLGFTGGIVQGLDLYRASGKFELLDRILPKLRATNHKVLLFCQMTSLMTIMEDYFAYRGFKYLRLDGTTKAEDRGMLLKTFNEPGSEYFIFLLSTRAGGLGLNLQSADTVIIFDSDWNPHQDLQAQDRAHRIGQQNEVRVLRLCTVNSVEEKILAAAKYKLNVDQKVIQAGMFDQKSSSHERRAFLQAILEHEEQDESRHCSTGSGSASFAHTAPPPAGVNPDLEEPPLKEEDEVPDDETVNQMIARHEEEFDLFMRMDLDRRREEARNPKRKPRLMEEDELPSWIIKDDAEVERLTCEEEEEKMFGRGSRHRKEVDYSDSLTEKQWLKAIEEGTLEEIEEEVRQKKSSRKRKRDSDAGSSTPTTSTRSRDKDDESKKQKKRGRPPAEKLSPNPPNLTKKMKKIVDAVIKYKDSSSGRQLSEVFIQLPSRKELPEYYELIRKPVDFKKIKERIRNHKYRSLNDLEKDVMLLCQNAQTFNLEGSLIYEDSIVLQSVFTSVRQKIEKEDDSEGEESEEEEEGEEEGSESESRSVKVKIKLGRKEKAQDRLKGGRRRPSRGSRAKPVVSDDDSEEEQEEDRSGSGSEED
recorded endpoint: IC50 (nM)

Examples with their reported IC50 follow.
CCOc1ccnc2c1CCCN2c1ccc2cnc(CNC(=O)c3cc(F)c4c(c3)S(=O)(=O)[C@@H](F)CCO4)cc2n1 = 16.9
CCOc1cnc2c(c1)OCCN2c1ccc2cnc(CNC(=O)c3cc(F)c4c(c3)S(=O)(=O)[C@@H](F)CCO4)cc2n1 = 98.5
O=C(NCc1cc2cc(N3CCOc4cc(C5CC5)cnc43)ccc2cn1)c1cc(F)c2c(c1)S(=O)(=O)[C@@H](F)CCO2 = 76.3

[a] C[C@@H]1CCN1c1cnc2c(c1)OCCN2c1ccc2cnc(CNC(=O)c3cc(F)c4c(c3)S(=O)(=O)[C@@H](F)CCO4)cc2n1
[b] CCOc1ccnc2c1OCCN2c1ccc2cnc(CNC(=O)c3cc(Cl)c4c(c3)S(=O)(=O)[C@@H](F)COC4)cc2n1
[c] COc1ccc(-c2ccc3cnc(CNC(=O)c4cc(F)c5c(c4)S(=O)(=O)[C@@H](F)CCO5)cc3n2)nc1[C@@H]1CC1(F)F [Compound 273]
Incoming: Ascending sort, IC50. List labels; respect the requested ordering.
Outgoing: b, a, c

###

# target system: BRG-1 (Homo sapiens, UniProt P51532)
pIC50: −log10 of the molar value.
recorded endpoint: pIC50

Examples with their reported pIC50 follow.
COCCOc1ccc2c(c1)OCCN2c1ccc2cnc(CNC(=O)c3cc(F)c4c(c3)S(=O)(=O)[C@@H](F)CCO4)cc2n1 = 7.37
O=C(NCc1cc2nc(N3CCOc4c(OCC5CC5)ccnc43)ccc2cn1)c1cc(F)c2c(c1)S(=O)(=O)[C@@H](F)CCO2 = 7.08

[a] O=C(NCc1cc2nc(N3CCCc4sc(C(F)F)nc43)ccc2cn1)c1cc(F)c2c(c1)S(=O)(=O)[C@@H](F)CCO2
[b] COc1cc(C(=O)NCc2cc3nc(-c4ccc(OC(F)F)c(C5CC5)n4)ccc3cn2)cc2c1COC[C@H](F)S2(=O)=O
[c] COc1nc([C@H](C)F)ccc1-c1ccc2cnc(CNC(=O)c3cc(Cl)c4c(c3)S(=O)(=O)[C@@H](F)COC4)cc2n1
[d] COc1nc([C@H](C)F)ccc1-c1ccc2cnc(CNC(=O)c3cc(Cl)c4c(c3)S(=O)(=O)[C@@H](F)CCO4)cc2n1
[e] CN(CC(F)F)c1cnc2c(c1)OCCN2c1ccc2cnc(CNC(=O)c3cc(F)c4c(c3)S(=O)(=O)[C@@H](F)CCO4)cc2n1
Incoming: Ascending sort, pIC50. List labels; respect the requested ordering.
Outgoing: b, d, c, a, e

[I] Cc1cc2c(-c3ccc4cnc(CNC(=O)c5cc(F)c6c(c5)S(=O)(=O)[C@@H](F)CCO6)cc4n3)ccnc2n1C
[II] COc1nc([C@H](C)F)ccc1-c1ccc2cnc(CNC(=O)c3cc(F)c4c(c3)S(=O)(=O)[C@@H](F)CCO4)cc2n1
Incoming: Kindly identify which of I and II has the larger recorded pIC50 value. Identify your selection by its label.
Outgoing: I

[1] CCOc1nc(C(F)F)ccc1-c1ccc2cnc(CNC(=O)c3cc(F)c4c(c3)S(=O)(=O)[C@@H](F)CCO4)cc2n1
[2] C[C@H](NC(=O)c1cc(F)c2c(c1)S(=O)(=O)[C@@H](F)CCO2)c1cc2nc(N3CCOc4cc(C5CC5)cnc43)ccc2cn1
Incoming: Kindly identify which of 1 and 2 has the larger recorded pIC50 value. Identify your selection by its label.
Outgoing: 1
(1: 7.12, 2: 6.73)
